Source listed as patent US20260167959A1.

Please go through the items and note down their Fold change in RNA expression between the ON state and the OFF state.
- System: Renilla luciferase RNA
- assay remarks: Barcoded aptazyme variant library screen: un-cleaved Renilla luciferase RNA by barcode read counts, HEK293-T cells
- Assay type: cell-based
- protocol conditions: un-cleaved Renilla luciferase RNA by barcode read counts; with 1 mM theophylline (ON) over without theophylline (OFF); HEK293-T cells; triplicate

Use the examples below as a reference point.
- molecule: "RA404 (nucleic acid, expressed or natural sequence) DNA: GCGCGTCCTGGATTCGCGGAAGGAATACCAGCATCGTCTTGATGCCCTTGGAAGTCCACGCGTACATCCAGCTGACGAGTCCCAAATAGGACGAAACGCGC"
  recorded value: 0.7
- molecule: "RA425 (nucleic acid, expressed or natural sequence) DNA: GCGCGTCCTGGATTCGCGGAAACGCGTACAGGAATACCAGCATCGTCTTGATGCCCTTGGAAGTCCTCCAGCTGACGAGTCCCAAATAGGACGAAACGCGC"
  recorded value: 0.6
- molecule: "RA441 (nucleic acid, expressed or natural sequence) DNA: GCGCCCGGAATACCAGCATCGTCTTGATGCCCTTGGAAGTCCGGGTCCTGGATTCGCGGAAACGCGTACATCCAGCTGACGAGTCCCAAATAGGACGAAACGCGC"
  recorded value: 0.6

Now look at this one.
Q) Which value of Fold change in RNA expression between the ON state and the OFF state has been reported for RA437 (nucleic acid, expressed or natural sequence) DNA: GCGCGTCCTGGATTCGCGGAAACGCGTACATCCAGCTGACGAGTCCCAAGAATACCAGCATCGTCTTGATGCCCTTGGAAGTCTAATAGGACGAAACGCGC in the records?
A) 0.6
